inhibition of growth at 10 µM reference
- Test system: A549
- test-method-notes: Growth inhibition of human A549 cells at 10 uM after 48 hrs by SRB assay
- Type: functional
- measurement-setup: A549, 48 h, read-out: GI
Field note: include the unit after the figure.

Check out these entries, answers already filled in.
{"columns": ["compound", "inhibition of growth at 10 µM"],
 "data": [
  ["COc1ccc2nc3ccccc3c(NCCc3cccs3)c2c1", "20%"],
  ["COc1cccc2c(NCCc3c[nH]c4ccccc34)c3ccccc3nc12", "49%"],
  ["COc1ccc2nc3ccccc3c(NC(=S)NCC3CCCO3)c2c1 (racemic)", "24%"]
]}

(Q) Indicate its recorded inhibition of growth at 10 µM; the compound in question is Cc1cccc2c(NC(=S)NCCc3cccs3)c3ccccc3nc12
(A) 53%

(Q) Indicate its recorded inhibition of growth at 10 µM; the compound in question is Cc1cccc2c(NC(=S)NCC3CCCO3)c3ccccc3nc12 (racemic)
(A) 96%

(Q) Indicate its recorded inhibition of growth at 10 µM; the compound in question is COc1ccc2nc3ccccc3c(NC(=S)NCCc3cccs3)c2c1
(A) 42%

* * *

inhibition of growth at 10 µM reference
- Test system: HEp-2
- test-method-notes: Growth inhibition of human Hep2 cells at 10 uM after 48 hrs by SRB assay
- Assay type: functional
- measurement-setup: HEp-2, 48 h, read-out: GI
Give your result in % as a bare value.

Check out these entries, answers already filled in.
{"columns": ["compound", "target-of-assay", "measured-endpoint", "quantitative-readout"],
 "data": [
  ["COc1ccc2nc3ccccc3c(NC(=S)NCC3CCCO3)c2c1 (racemic)", "HEp-2", "inhibition of growth at 10 µM", 8],
  ["COc1ccc2nc3ccccc3c(NCCc3c[nH]c4ccccc34)c2c1", "HEp-2", "inhibition of growth at 10 µM", 9],
  ["CC(=O)O[C@H]1C(=O)[C@@]2(C)[C@H]([C@H](OC(=O)c3ccccc3)[C@]3(O)C[C@H](OC(=O)[C@H](O)[C@@H](NC(=O)c4ccccc4)c4ccccc4)C(C)=C1C3(C)C)[C@]1(OC(C)=O)CO[C@@H]1C[C@@H]2O", "HEp-2", "inhibition of growth at 10 µM", 75]
]}

(Q) Indicate its recorded inhibition of growth at 10 µM; the compound in question is COc1cccc2c(NCC3CCCO3)c3ccccc3nc12 (racemic)
(A) 34

* * *

- Test system: Rattus norvegicus
- test-method-notes: Antiinflammatory activity in albino Charles-Foster rat assessed as inhibition of carrageenan-induced paw oedema at 50 mg/kg, po administered 30 mins before carrageenan challenge […] after 1-3 hrs relative to control
- Format: functional
- Parameters: scale not given: the % may be the effect or the level left
Activity reference
Give your result in % as a bare value.

Check out these entries, answers already filled in.
{"columns": ["compound", "measured-endpoint", "value-unit", "quantitative-readout"],
 "data": [
  ["COc1cccc2c(NCc3ccco3)c3ccccc3nc12", "Activity", "%", 38.37],
  ["CC(C)Cc1ccc(C(C)C(=O)O)cc1 (stereo not given)", "Activity", "%", 39],
  ["COc1ccc2nc3ccccc3c(NC(=S)NCCc3cccs3)c2c1", "Activity", "%", 34.08],
  ["COc1ccc2nc3ccccc3c(NCCc3cccs3)c2c1", "Activity", "%", 41.17],
  ["COc1ccc2nc3ccccc3c(NCC3CCCO3)c2c1 (racemic)", "Activity", "%", 20.16],
  ["Cc1cccc2c(NC(=S)NCCc3cccs3)c3ccccc3nc12", "Activity", "%", 30.7],
  ["Cc1cccc2c(NCc3ccco3)c3ccccc3nc12", "Activity", "%", 0],
  ["Cc1cccc2c(NCCc3cccs3)c3ccccc3nc12", "Activity", "%", 33.09]
]}

(Q) Indicate its recorded Activity; the compound in question is COc1cccc2c(NCCc3c[nH]c4ccccc34)c3ccccc3nc12
(A) 39.69

(Q) Indicate its recorded Activity; the compound in question is Cc1cccc2c(NCCc3c[nH]c4ccccc34)c3ccccc3nc12
(A) 31.03

(Q) Indicate its recorded Activity; the compound in question is COc1cccc2c(NCCc3cccs3)c3ccccc3nc12
(A) 26.05

(Q) Indicate its recorded Activity; the compound in question is COc1cccc2c(NCC3CCCO3)c3ccccc3nc12 (racemic)
(A) 0

(Q) Indicate its recorded Activity; the compound in question is Cc1cccc2c(NC(=S)NCc3ccco3)c3ccccc3nc12
(A) 32.33

* * *

- Tested on: A549
- test-method-notes: Growth inhibition of human A549 cells at 10 uM after 48 hrs by SRB assay
- Type: functional
- measurement-setup: A549, 48 h, read-out: GI
inhibition of growth at 10 µM reference
Give your result in % as a bare value.

Check out these entries, answers already filled in.
{"columns": ["compound", "measured-endpoint", "value-unit", "quantitative-readout"],
 "data": [
  ["CC(=O)O[C@H]1C(=O)[C@@]2(C)[C@H]([C@H](OC(=O)c3ccccc3)[C@]3(O)C[C@H](OC(=O)[C@H](O)[C@@H](NC(=O)c4ccccc4)c4ccccc4)C(C)=C1C3(C)C)[C@]1(OC(C)=O)CO[C@@H]1C[C@@H]2O [PACLITAXEL]", "inhibition of growth at 10 µM", "%", 51],
  ["O=c1[nH]cc(F)c(=O)[nH]1 [FLUOROURACIL]", "inhibition of growth at 10 µM", "%", 0]
]}

(Q) Please report inhibition of growth at 10 µM with A549 for item COc1cccc2c1C(=O)c1c(O)c3c(c(O)c1C2=O)C[C@@](O)(C(=O)CO)C[C@@H]3O[C@H]1C[C@H](N)[C@H](O)[C@H](C)O1 [DOXORUBICIN] .
(A) 44

(Q) Please report inhibition of growth at 10 µM with A549 for item COc1ccc2nc3ccccc3c(NCc3ccco3)c2c1 .
(A) 35

* * *

- Tested on: OVCAR-5
- test-method-notes: Growth inhibition of human OVCAR5 cells at 10 uM after 48 hrs by SRB assay
- Format: functional
- measurement-setup: OVCAR-5, 48 h, read-out: GI
measured-endpoint: inhibition of growth at 10 µM (%)
Give your result in % as a bare value.

Check out these entries, answers already filled in.
{"columns": ["compound", "inhibition of growth at 10 µM (%)"],
 "data": [
  ["Cc1cccc2c(NCCc3c[nH]c4ccccc34)c3ccccc3nc12", 51],
  ["COc1ccc2nc3ccccc3c(NCCc3c[nH]c4ccccc34)c2c1", 23],
  ["COc1ccc2nc3ccccc3c(NCC3CCCO3)c2c1 (racemic)", 41]
]}

(Q) Please report inhibition of growth at 10 µM with OVCAR-5 for item Cc1cccc2c(NCCc3cccs3)c3ccccc3nc12 .
(A) 6

(Q) Please report inhibition of growth at 10 µM with OVCAR-5 for item Cc1cccc2c(NCC3CCCO3)c3ccccc3nc12 (racemic) .
(A) 54

* * *

- System: HEp-2
- test-method-notes: Growth inhibition of human Hep2 cells at 10 uM after 48 hrs by SRB assay
- Format: functional
- measurement-setup: HEp-2, 48 h, read-out: GI
inhibition of growth at 10 µM reference
Give your result in % as a bare value.

Check out these entries, answers already filled in.
{"columns": ["mol-smiles", "inhibition of growth at 10 µM / %"],
 "data": [
  ["Cc1cccc2c(NC(=S)NCCc3c[nH]c4ccccc34)c3ccccc3nc12", 96],
  ["Cc1cccc2c(NCCc3cccs3)c3ccccc3nc12", 41],
  ["Cc1cccc2c(NC(=S)NCCc3cccs3)c3ccccc3nc12", 67],
  ["COc1cccc2c(NCCc3cccs3)c3ccccc3nc12", 62],
  ["COc1cccc2c(NCCc3c[nH]c4ccccc34)c3ccccc3nc12", 75]
]}

(Q) Please report inhibition of growth at 10 µM with HEp-2 for item Cc1cccc2c(NCc3ccco3)c3ccccc3nc12 .
(A) 51

* * *

- System: A549
- test-method-notes: Growth inhibition of human A549 cells at 10 uM after 48 hrs by SRB assay
- Format: functional
- measurement-setup: A549, 48 h, read-out: GI
measured-endpoint: inhibition of growth at 10 µM (%)
Give your result in % as a bare value.

{"columns": ["molecule", "value-unit", "inhibition of growth at 10 µM"],
 "data": [
  ["CO[C@@]12[C@H](COC(N)=O)C3=C(C(=O)C(C)=C(N)C3=O)N1C[C@@H]1N[C@@H]12 [MITOMYCIN]", "%", 40],
  ["Cc1cccc2c(NC(=S)NCc3ccco3)c3ccccc3nc12", "%", 46],
  ["COc1cccc2c(NCC3CCCO3)c3ccccc3nc12 (racemic)", "%", 56]
]}

Continue with the next molecule.
(Q) Indicate its recorded inhibition of growth at 10 µM; the molecule in question is COc1cccc2c(NCCc3cccs3)c3ccccc3nc12
(A) 61

Value source: ChEMBL document CHEMBL1154710
